# Test system: S. aureus ATCC29213
# Test Name: MIC, broth dilution
# Format: cell-based, Staphylococcus aureus
# Run Conditions: CLSI broth dilution, MHB, 6.25 × 10^5 cfu per ml, 37°C, 20 h, OD630, at least three repeats
Where a SMILES comes first, the peptide text is derived from it.

Compound	MIC, µg/mL
CC[C@H](C)[C@H](NC(=O)[C@H](CCCNC(=N)N)NC(=O)[C@H](CCCCN)NC(=O)[C@@H](NC(=O)[C@@H](N)Cc1ccccc1)[C@@H](C)CC)C(=O)N[C@@H](C)C(=O)N[C@@H](CCCCN)C(=O)N[C@@H](CC(C)C)C(=O)N[C@@H](CC(C)C)C(=O)N[C@@H](CCCCN)C(=O)N[C@@H](CCCCN)C(=O)N[C@H](C(=O)N[C@@H](Cc1ccccc1)C(N)=O)[C@@H](C)CC [Kn2-7(R7K_R10K)] (H-FIKRIAKLLKKIF-NH2)	5
CC[C@H](C)[C@H](NC(=O)[C@H](CCCNC(=N)N)NC(=O)[C@H](CCCCN)NC(=O)[C@@H](NC(=O)[C@@H](N)Cc1ccccc1)[C@@H](C)CC)C(=O)N[C@@H](C)C(=O)N[C@@H](CCCNC(=N)N)C(=O)N[C@@H](CC(C)C)C(=O)N[C@@H](CC(C)C)C(=O)N[C@@H](CO)C(=O)N[C@@H](CCCCN)C(=O)N[C@H](C(=O)N[C@@H](Cc1ccccc1)C(N)=O)[C@@H](C)CC [Kn2(G3K_A4R)] (H-FIKRIARLLSKIF-NH2)	5
CC[C@H](C)[C@H](NC(=O)[C@H](CCCNC(=N)N)NC(=O)[C@H](CCCNC(=N)N)NC(=O)[C@@H](NC(=O)[C@@H](N)Cc1ccccc1)[C@@H](C)CC)C(=O)N[C@@H](C)C(=O)N[C@@H](CCCNC(=N)N)C(=O)N[C@@H](CC(C)C)C(=O)N[C@@H](CC(C)C)C(=O)N[C@@H](CCCNC(=N)N)C(=O)N[C@@H](CCCNC(=N)N)C(=O)N[C@H](C(=O)N[C@@H](Cc1ccccc1)C(N)=O)[C@@H](C)CC [BmKn2-7R] (H-FIRRIARLLRRIF-NH2)	5
CC[C@H](C)[C@H](NC(=O)[C@H](C)NC(=O)[C@H](CCCCN)NC(=O)[C@@H](NC(=O)[C@@H](N)Cc1ccccc1)[C@@H](C)CC)C(=O)N[C@@H](C)C(=O)N[C@@H](CCCNC(=N)N)C(=O)N[C@@H](CC(C)C)C(=O)N[C@@H](CC(C)C)C(=O)N[C@@H](CO)C(=O)N[C@@H](CCCCN)C(=O)N[C@H](C(=O)N[C@@H](Cc1ccccc1)C(N)=O)[C@@H](C)CC [Kn2(G3K)] (H-FIKAIARLLSKIF-NH2)	5
CC[C@H](C)[C@H](NC(=O)[C@H](C)NC(=O)[C@H](CCCCN)NC(=O)[C@@H](NC(=O)[C@@H](N)Cc1ccccc1)[C@@H](C)CC)C(=O)N[C@@H](C)C(=O)N[C@@H](CCCNC(=N)N)C(=O)N[C@@H](CC(C)C)C(=O)N[C@@H](CC(C)C)C(=O)N[C@@H](CCCNC(=N)N)C(=O)N[C@@H](CCCCN)C(=O)N[C@H](C(=O)N[C@@H](Cc1ccccc1)C(N)=O)[C@@H](C)CC [Kn2(G3K_S10R)] (H-FIKAIARLLRKIF-NH2)	10
CC[C@H](C)[C@H](NC(=O)[C@H](CCCNC(=N)N)NC(=O)[C@H](CCCCN)NC(=O)[C@@H](NC(=O)[C@@H](N)Cc1ccccc1)[C@@H](C)CC)C(=O)N[C@@H](C)C(=O)N[C@@H](CCCCN)C(=O)N[C@@H](CC(C)C)C(=O)N[C@@H](CC(C)C)C(=O)N[C@@H](CCCNC(=N)N)C(=O)N[C@@H](CCCCN)C(=O)N[C@H](C(=O)N[C@@H](Cc1ccccc1)C(N)=O)[C@@H](C)CC [Kn2-7(R7K)] (H-FIKRIAKLLRKIF-NH2)	5
CC[C@H](C)[C@H](NC(=O)[C@H](C)NC(=O)CNC(=O)[C@@H](NC(=O)[C@@H](N)Cc1ccccc1)[C@@H](C)CC)C(=O)N[C@@H](C)C(=O)N[C@@H](CCCNC(=N)N)C(=O)N[C@@H](CC(C)C)C(=O)N[C@@H](CC(C)C)C(=O)N[C@@H](CCCNC(=N)N)C(=O)N[C@@H](CCCCN)C(=O)N[C@H](C(=O)N[C@@H](Cc1ccccc1)C(N)=O)[C@@H](C)CC [Kn2(S10R)] (H-FIGAIARLLRKIF-NH2)	10
